target: Human autotaxin enzyme (Homo sapiens, UniProt Q13822); construct: purchased R&D System; assay: Evaluation of autotaxin inhibitor, Method C (Test Example 3): 18:0 Lyso PC, choline assay, Resorufin fluorescence; type: biochemical; settings: Assay Method C (Test Example 3), human autotaxin, 18:0 Lyso PC substrate; read-out: Inhibitory Activity (autotaxin enzyme inhibitory activity, IC50 class)
Listed here are compounds together with their documented IC50.

Worked cases, answers included:
CCCCCn1c(-c2ccc(C(=O)NCC(C)=O)cc2)cc(=O)n2cc(-c3ccc(Cl)cc3)nc12; 10 to 100 nM
CCCCCn1c(N2CCC[C@H]2C(=O)NCCOCCN2C(=O)C=CC2=O)cc(=O)n2cc(-c3ccc(Cl)cc3)nc12; 100 to 1000 nM
CCCCCn1c(N2CCC[C@H]2C(=O)N[C@H](C(=O)O)C(C)(C)C)cc(=O)n2cc(-c3ccc(Cl)cc3)nc12; < 10 nM

Shifting focus to the compound that follows.
Input: Entry CCCCCn1c(N2CCC[C@H]2C(=O)NCC2CCN(C)C2)cc(=O)n2cc(-c3ccc(Cl)cc3)nc12 (stereo partly shown) has what IC50?
Output: > 1000 nM

* * *

molecular target: Human autotaxin enzyme (Homo sapiens); construct: purchased R&D System; experiment: Evaluation of autotaxin inhibitor, Method C (Test Example 3): 18:0 Lyso PC, choline assay, Resorufin fluorescence; assay type: biochemical; settings: Assay Method C (Test Example 3), human autotaxin, 18:0 Lyso PC substrate; read-out: Inhibitory Activity (autotaxin enzyme inhibitory activity, IC50 class)
Listed here are compounds together with their documented IC50.

Worked cases, answers included:
CCCCCn1c(-c2ccc(C(=O)NCCS(=O)(=O)N3CCCC3)cc2)cc(=O)n2cc(-c3ccc(Cl)cc3)nc12 [Compound 513]; 10 to 100 nM
CCCCCn1c(N2C[C@@H](O)C[C@H]2C(=O)N[C@@H](C)C(=O)O)cc(=O)n2cc(-c3ccc(Cl)cc3)nc12 [Compound 779]; < 10 nM
CCCCCn1c(N(C)Cc2ccc(C(=O)O)cc2)cc(=O)n2cc(-c3ccc(Cl)cc3)nc12 [Compound 197]; 10 to 100 nM
CCCCCn1c(N2CCC(C(F)(F)F)C2)cc(=O)n2cc(-c3ccc(Cl)cc3)nc12 (stereo not shown) [Compound 323]; 100 to 1000 nM
CCCCCn1c(N2CCN(C(=O)OC(C)(C)C)C[C@@H]2C(=O)O)cc(=O)n2cc(-c3ccc(Cl)cc3)nc12 [Compound 640]; > 1000 nM

Input: Entry CCCCCn1c(N(Cc2ccc(C(=O)OC)cc2)C(C)=O)cc(=O)n2cc(-c3ccc(Cl)cc3)nc12 [Compound 566] has what IC50?
Output: 10 to 100 nM

Input: Okay, and CCCCCn1c(N2C[C@@H](F)C[C@H]2C(=O)NC(C)(C)CC(=O)O)cc(=O)n2cc(-c3ccc(Cl)cc3)nc12 [Compound 584] ?
Output: < 10 nM

* * *

Biological target: Human autotaxin enzyme (Homo sapiens)
Construct: purchased R&D System
Experiment: Evaluation of autotaxin inhibitor, Method B (Test Example 2): TG-mTMP fluorescence
Assay type: biochemical
Details: Assay Method B (Test Example 2), human autotaxin; read-out: Inhibitory Activity (autotaxin enzyme inhibitory activity, IC50 class)
Experimental: (Method B) Evaluation of Autotaxin Inhibitor Solution A containing 25 mM Tris-HCl buffer (pH7.5), 100 mM NaCl, 5 mM MgCl2 and 0.1% BSA was prepared. […] 5 μl of 150 mM EDTA in Solution A was added to quench the reaction, and the fluorescent dye TokyoGreen, which was produced by the reaction, was detected. The fluorescence was detected using ViewLux (PerkinElmer, Inc.) with an excitation wavelength of 480 nm and a fluorescence wavelength of 540 nm.
Listed here are molecules together with their documented IC50.

Worked cases, answers included:
CCCCCn1c(N2CCC(N3CCOCC3)CC2)cc(=O)n2cc(-c3ccc(Cl)cc3)nc12; 10 to 100 nM
CCCCCn1c(N2CCN(CCCOC)CC2)cc(=O)n2cc(-c3ccc(Cl)cc3)nc12; < 10 nM

Input: Entry "Cc1cc(=O)n2cc(-c3ccc(Cl)cc3)nc2n1Cc1ccc(C(=O)c2ccccc2)cc1" has what IC50?
Output: 100 to 1000 nM

Input: Okay, and "CCCCCn1c(OC(C)(C)C)cc(=O)n2cc(-c3ccc(Cl)cc3)nc12" ?
Output: 100 to 1000 nM

Input: Okay, and "Cc1cc(=O)n2cc(-c3ccc(Cl)cc3)nc2n1Cc1ccc(OC(F)(F)F)cc1" ?
Output: 100 to 1000 nM

Input: Okay, and "CCCCCn1c(/C=C/C(C)(C)C)cc(=O)n2cc(-c3ccc(Cl)cc3)nc12" ?
Output: 10 to 100 nM

Input: Okay, and "N#CCCCCn1c(-c2ccc(C(N)=O)cc2)cc(=O)n2cc(-c3ccc(C#N)cc3)nc12" ?
Output: < 10 nM

Input: Okay, and "Cc1cc(=O)n2cc(-c3ccc(Cl)cc3)nc2n1Cc1ccc(Cl)c(Cl)c1" ?
Output: 10 to 100 nM

* * *

molecular target: Human autotaxin enzyme (Homo sapiens); construct: purchased R&D System; experiment: Evaluation of autotaxin inhibitor, Method C (Test Example 3): 18:0 Lyso PC, choline assay, Resorufin fluorescence; type: biochemical; details: Assay Method C (Test Example 3), human autotaxin, 18:0 Lyso PC substrate; read-out: Inhibitory Activity (autotaxin enzyme inhibitory activity, IC50 class)
Listed here are compounds together with their documented IC50.

Worked cases, answers included:
CCCCCn1c(OC2CN(C(=O)CN3CCOCC3)C2)cc(=O)n2cc(-c3ccc(Cl)cc3)nc12 [Compound 543]; 10 to 100 nM
CCCCCn1c(C)c(CCO)c(=O)n2cc(-c3ccc(Cl)cc3)nc12 [Compound 207]; 10 to 100 nM
CCCCCn1c(N2CCC[C@H]2C(=O)N(C)CCCO)cc(=O)n2cc(-c3ccc(Cl)cc3)nc12 [Compound 346]; 10 to 100 nM

Input: Entry CCn1c(N2C[C@H](O)C[C@H]2C(=O)N[C@@H](Cc2ccccc2)C(=O)O)cc(=O)n2cc(-c3ccc(Cl)cc3)nc12 [Compound 761] has what IC50?
Output: 100 to 1000 nM

Input: Okay, and CCCCCn1c(-c2ccc(NC(C)=O)cc2)cc(=O)n2cc(-c3ccc(Cl)cc3)nc12 [Compound 434] ?
Output: 100 to 1000 nM

Input: Okay, and CCCCCn1c(N2CCCCC2CCO)cc(=O)n2cc(-c3ccc(Cl)cc3)nc12 (stereo not shown) [Compound 302] ?
Output: 10 to 100 nM

Input: Okay, and CCCCCn1c(N2CCN(C(=O)OC(C)(C)C)C(C(=O)NCC(=O)O)C2)cc(=O)n2cc(-c3ccc(Cl)cc3)nc12 (stereo not shown) [Compound 627] ?
Output: 100 to 1000 nM

* * *

Listed here are compounds together with their documented IC50.
molecular target: Human autotaxin enzyme (Homo sapiens, UniProt Q13822); construct: purchased R&D System; test: Evaluation of autotaxin inhibitor, Method C (Test Example 3): 18:0 Lyso PC, choline assay, Resorufin fluorescence; type: biochemical; conditions: Assay Method C (Test Example 3), human autotaxin, 18:0 Lyso PC substrate; read-out: Inhibitory Activity (autotaxin enzyme inhibitory activity, IC50 class)

CCCCCn1c(N2CCC[C@H]2C(=O)NCCCCN2CCN(C)CC2)cc(=O)n2cc(-c3ccc(Cl)cc3)nc12; 10 to 100 nM
CCCCCn1c(/N=C(\C)OCCC)cc(=O)n2cc(-c3ccc(Cl)cc3)nc12; > 1000 nM
CCCCCn1c(N2CCC[C@H]2C(=O)N[C@@H](CCC)C(=O)O)cc(=O)n2cc(-c3ccc(Cl)cc3)nc12; < 10 nM

Shifting focus to the compound that follows.
Input: Entry "CCCCCn1c(N2CCC[C@H](C(=O)OCC)C2)cc(=O)n2cc(-c3ccc(Cl)cc3)nc12" has what IC50?
Output: 100 to 1000 nM

* * *

Listed here are compounds together with their documented IC50.
molecular target: Human autotaxin enzyme (Homo sapiens, UniProt Q13822); construct: purchased R&D System; experiment: Evaluation of autotaxin inhibitor, Method C (Test Example 3): 18:0 Lyso PC, choline assay, Resorufin fluorescence; assay type: biochemical; details: Assay Method C, human autotaxin, 18:0 Lyso PC substrate; read-out: Inhibitory Activity

Worked cases, answers included:
N#CCCNC(=O)Cc1cn(CCCC(F)(F)F)c2nc(-c3ccc(Cl)cc3)cn2c1=O; 100 to 1000 nM
CCCCCn1c(N2CCC[C@@H](C)C2)cc(=O)n2cc(-c3ccc(Cl)cc3)nc12; > 1000 nM
CCCCCn1c(N2CCC[C@H]2C(=O)Nc2ccc(-c3nn[nH]n3)cc2)cc(=O)n2cc(-c3ccc(Cl)cc3)nc12; 100 to 1000 nM

Input: Entry "CCCCCn1c(N2CCC[C@H]2C(=O)Nc2cc(O)[nH]n2)cc(=O)n2cc(-c3ccc(Cl)cc3)nc12" has what IC50?
Output: > 1000 nM

Input: Okay, and "O=C1CN(C(=O)Cc2cn(CCCC(F)(F)F)c3nc(-c4ccc(Cl)cc4)cn3c2=O)CCN1" ?
Output: > 1000 nM

Input: Okay, and "O=C1CCN(C(=O)Cc2cn(CCCC(F)(F)F)c3nc(-c4ccc(Cl)cc4)cn3c2=O)C1" ?
Output: 100 to 1000 nM

Input: Okay, and CCCCCn1c(N2CCC[C@H]2C(=O)NC(C(=O)O)C(F)(F)F)cc(=O)n2cc(-c3ccc(Cl)cc3)nc12 (stereo partly drawn) ?
Output: < 10 nM

Input: Okay, and "CCCCCn1c(N2CCCC(C)(C)C2)cc(=O)n2cc(-c3ccc(Cl)cc3)nc12" ?
Output: > 1000 nM

Input: Okay, and CCCCCn1c(N2CC3CC3C2)cc(=O)n2cc(-c3ccc(Cl)cc3)nc12 (stereo not drawn) ?
Output: 100 to 1000 nM

Input: Okay, and "CCCCCn1c(N2CCC[C@H](C)C2)cc(=O)n2cc(-c3ccc(Cl)cc3)nc12" ?
Output: 100 to 1000 nM

Input: Okay, and CCCCCn1c(N2CCCCC2CC)cc(=O)n2cc(-c3ccc(Cl)cc3)nc12 (stereo not drawn) ?
Output: > 1000 nM

Input: Okay, and "CCCCCn1c(N2CCC[C@H]2C(=O)NCc2nn[nH]n2)cc(=O)n2cc(-c3ccc(Cl)cc3)nc12" ?
Output: < 10 nM

Input: Okay, and "CC(=O)CNC(=O)Cc1cn(CCCC(F)(F)F)c2nc(-c3ccc(Cl)cc3)cn2c1=O" ?
Output: > 1000 nM

Input: Okay, and CCCCCn1c(N2CCC[C@H]2C(=O)NC(C)C(O)C(F)(F)F)cc(=O)n2cc(-c3ccc(Cl)cc3)nc12 (stereo partly drawn) ?
Output: 10 to 100 nM

Input: Okay, and "CCOC(=O)c1cccc(Cc2cn(CC3CC3)c3nc(-c4ccc(Cl)cc4)cn3c2=O)c1" ?
Output: > 1000 nM

Cited source: patent US20160002247A1
